System: epithelial carcinoma A431 cell line
Assay: MTT Cell Proliferation Assay, A431 cells
Format: cell-based
Conditions: Homo sapiens, A-431, A431 cells, first value of cell; read-out: MTT Assay IC50(A431/MDBK): A431
pIC50: −log10 of the molar value. Counter-ions that a name gives are not always drawn.
property label: pIC50

I. FC(F)(F)c1cc(C(F)(F)F)nc(Nc2nc(-c3ccccc3)c3cc(Cl)ccc3n2)n1
II. Cc1ccc2nc(Nc3nc(C(C)C)cc(=O)[nH]3)nc(C)c2c1 [12741 + TFA]
input: Field: lower recorded pIC50 (choose I or II ) Indicate your choice by writing its label.
output: II

I. Cc1ccc(-c2cc(=O)[nH]c(Nc3nc(C)c4ccc(C)cc4n3)n2)cc1 [12604 + TFA]
II. COCc1cc(=O)nc(Nc2nc(C)c3cc(C)cc(C)c3n2)[nH]1 [11625 + TFA]
III. Cc1ccc2nc(Nc3nc(-c4ccccc4C)cc(=O)[nH]3)nc(C)c2c1 [11785 + TFA]
input: Ascending by pIC50, please. Field: ranking. Enter the labels in the order requested.
output: II, I, III

I. CCc1ccc2nc(Nc3nc(C)c(CCC(C)C)c(=O)[nH]3)nc(C)c2c1
II. CCOc1ccc2nc(Nc3nc(=O)cc(-c4ccccc4)[nH]3)nc(C)c2c1 [12608 + TFA]
input: Among I and II , which shows a numerically higher pIC50 result? Answer = label.
output: I
(I: 4.84, II: 4.37)

* * *

Biological target: EGFR (Homo sapiens)
Construct: host or cells: A431
Sequence (P00533 25-1210): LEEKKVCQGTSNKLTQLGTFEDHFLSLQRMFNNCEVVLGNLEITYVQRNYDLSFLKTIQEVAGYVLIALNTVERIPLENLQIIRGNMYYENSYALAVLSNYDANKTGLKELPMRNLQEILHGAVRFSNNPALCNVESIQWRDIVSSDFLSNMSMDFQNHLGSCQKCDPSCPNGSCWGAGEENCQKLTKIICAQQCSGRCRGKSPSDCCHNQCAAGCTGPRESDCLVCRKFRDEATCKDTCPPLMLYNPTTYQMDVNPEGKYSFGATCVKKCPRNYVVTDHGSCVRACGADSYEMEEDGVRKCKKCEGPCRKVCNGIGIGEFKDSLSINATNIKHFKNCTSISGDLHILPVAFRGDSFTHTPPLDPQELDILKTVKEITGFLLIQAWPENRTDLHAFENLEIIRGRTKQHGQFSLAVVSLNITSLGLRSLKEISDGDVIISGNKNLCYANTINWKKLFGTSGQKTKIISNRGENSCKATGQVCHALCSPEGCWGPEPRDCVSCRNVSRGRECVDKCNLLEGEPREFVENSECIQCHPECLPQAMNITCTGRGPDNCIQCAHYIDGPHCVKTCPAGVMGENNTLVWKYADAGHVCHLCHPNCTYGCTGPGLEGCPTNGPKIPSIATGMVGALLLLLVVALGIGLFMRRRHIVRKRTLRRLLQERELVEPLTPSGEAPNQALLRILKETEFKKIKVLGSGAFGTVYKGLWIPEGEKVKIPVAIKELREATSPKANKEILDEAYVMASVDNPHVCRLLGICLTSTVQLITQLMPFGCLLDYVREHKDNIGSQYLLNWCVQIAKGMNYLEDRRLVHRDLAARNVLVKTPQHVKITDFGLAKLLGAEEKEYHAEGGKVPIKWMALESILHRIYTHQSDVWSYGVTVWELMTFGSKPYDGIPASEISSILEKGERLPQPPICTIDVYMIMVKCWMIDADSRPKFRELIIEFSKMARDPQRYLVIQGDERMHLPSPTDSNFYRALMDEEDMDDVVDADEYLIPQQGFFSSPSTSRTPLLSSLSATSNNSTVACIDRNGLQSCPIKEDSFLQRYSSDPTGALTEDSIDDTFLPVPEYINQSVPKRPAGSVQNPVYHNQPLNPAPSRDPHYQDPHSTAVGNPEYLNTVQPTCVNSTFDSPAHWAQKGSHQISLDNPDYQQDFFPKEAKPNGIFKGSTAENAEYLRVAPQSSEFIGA
Assay: EGFR in-cell Western (ICW) screening protocol (EGFR inhibition assay)
Type: cell-based
Design: unit not given here
Conditions: ICW assay, run 1
Counter-ions that a name gives are not always drawn.
property label: ICW 1

Consider the following illustrative entries.
Cc1cc2nc(Nc3ncc4c(n3)CC(c3cccs3)CC4=O)nc(C)c2cc1C (stereo not drawn) [11681 + TFA] :: 30.46
CCOc1ccc2nc(Nc3nc(C)c(CCC(C)C)c(=O)[nH]3)nc(C)c2c1 [12684 + TFA] :: 40.81
Cc1cccc(Cc2c(C)nc(Nc3nc(C)c4cccc(C)c4n3)[nH]c2=O)c1 [11754 + TFA] :: 34.09

I. Cc1cc(C)nc(Nc2nc(-c3ccccc3)c3cc(Cl)ccc3n2)n1
II. CCCc1c(C)nc(Nc2nc(C)c3cc(C)cc(C)c3n2)[nH]c1=O [12612 + TFA]
input: // select label with min value of measured ICW 1 from [ I , II ] Write the label of whichever entry you select.
output: I

I. CCCCCC1C(=O)N=C(Nc2nc(C)c3ccc(CC)cc3n2)N=C1C (stereo not drawn) [12214 + TFA]
II. COc1ccc2c(C)nc(Nc3nc(C)cc(-c4ccccc4)n3)nc2c1
input: Hey, between I and II which has a smaller measured ICW 1? // caller expects the label of the chosen entry
output: II

1. CCCc1cc(=O)[nH]c(Nc2nc(C)c3cc(C)c(C)cc3n2)n1 [12673 + TFA]
2. CCCc1c(C)[nH]c(Nc2nc(C)c3cc(C)ccc3n2)nc1=O
input: Between 1 and 2 , whose measured ICW 1 reads higher? Refer to your chosen entry by its label in the reply.
output: 1

* * *

Molecular target: EGFR (Homo sapiens)
Construct: host or cells: A431
Experiment: EGFR in-cell Western (ICW) screening protocol (EGFR inhibition assay);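 for ICW Screen (ICW Inhibition): compound at 125 µM in assay in A431 cells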
Type: cell-based
property label: ICW Screen (ICW Inhibition)

// solved cases for ICW Screen (ICW Inhibition) follow
CC(C)NS(=O)(=O)c1ccc(NC(=S)NC(=O)CCCCCOc2ccc(Cl)cc2Cl)cc1 :: 34.978
CC(C)(C)NS(=O)(=O)c1ccc(NC(=S)NC(=O)C2CCC2)cc1 :: 26.918
CC(C)CC(=O)NC(=S)Nc1ccc(S(=O)(=O)NC2CCCCC2)cc1 :: 43.515
CC1CCC(S(=O)(=O)c2ccc(NC(=S)NC(=O)C3CC3)cc2)CC1 (stereo not drawn) :: 40.916
CC(=O)NC(=S)Nc1ccc(S(=O)(=O)N2CCc3ccccc32)cc1 [AD4-10103] :: 29.295

A. CN1CCN(S(=O)(=O)c2ccc(NC(=S)NC(=O)/C=C/c3ccc(F)cc3)cc2)CC1
B. CCOc1ccc(NS(=O)(=O)c2ccc(NC(=S)NC(=O)CC(C)C)cc2)cc1
input: Consider entries A and B . Which has the numerically lower ICW Screen (ICW Inhibition)? Kindly give the label for the entry you pick.
output: B
(B: 25.611, A: 41.933)
